experiment: Growth inhibition of human 16HBE cells by MTT assay
Grouping key: GI50. Bins: low (below 1 µM), middle (1 µM to below 8 µM), high (8 µM or more)

Entry COC1=C(C)C(=O)C(CCCCCCCCCCN2CCCN(CCCCCCCCCCC3=C(C)C(=O)C(OC)=C(C)C3=O)CC2)=C(C)C1=O belongs to which category? middle

----------
# Lookup of reported GI50 at 72 h keyed by entry
assay: Growth inhibition of human HLF cells after 72 hrs by MTT assay; type: cell-based

Recorded GI50 at 72 h, per entry:
• COC1=C(C)C(=O)C(CCCCCCCCCCN2CCN(C(=O)c3ccc(-c4ccccc4)cc3)CC2)=C(C)C1=O = > 20 µM
• O=C1C=C(CCCCCCCCCCN2CCCN(C(=O)c3ccc(-c4ccccc4)cc3)CC2)C(=O)c2ccccc21 = > 20 µM
• COC1=C(C)C(=O)C(CCCCCCCCCCN2CCCN(C(=O)c3ccc(-c4ccccc4)cc3)CC2)=C(C)C1=O = > 20 µM
• CCCCCCCCCC[C@H](O)COCCOC[C@@H](O)CCCCCCCCCCCCC1=C[C@H](C)OC1=O = 9.71 µM
• CC1=C(C)C(=O)C(CCCCCCCCCCN2CCCN(C(=O)c3ccc(-c4ccccc4)cc3)CC2)=C(C)C1=O = > 20 µM
• CC1=C(CCCCCCCCCCN2CCCN(CCCCCCCCCCC3=C(C)C(=O)c4ccccc4C3=O)CC2)C(=O)c2ccccc2C1=O = 4.95 µM
• CC1=C(CCCCCCCCCCN2CCN(CCCCCCCCCCC3=C(C)C(=O)c4ccccc4C3=O)CC2)C(=O)c2ccccc2C1=O = > 20 µM
• COC1=C(OC)C(=O)C(CCCCCCCCCCN2CCCN(C(=O)c3ccc(-c4ccccc4)cc3)CC2)=C(C)C1=O = > 20 µM

May I ask what GI50 at 72 h has been recorded for CC1=C(C)C(=O)C(CCCCCCCCCCN2CCN(CCCCCCCCCCC3=C(C)C(=O)C(C)=C(C)C3=O)CC2)=C(C)C1=O ? > 20 µM

May I ask what GI50 at 72 h has been recorded for CC1=C(CCCCCCCCCCN2CCCN(C(=O)c3ccc(-c4ccccc4)cc3)CC2)C(=O)c2ccccc2C1=O ? > 20 µM

May I ask what GI50 at 72 h has been recorded for CC1=C(C)C(=O)C(CCCCCCCCCCN2CCCN(CCCCCCCCCCC3=C(C)C(=O)C(C)=C(C)C3=O)CC2)=C(C)C1=O ? 0.36 µM

----------
test system: HCT-116; experiment: Growth inhibition of human HCT116 cells by MTT assay
# Lookup of reported GI50 keyed by entry
Response body: numeric value in µM, unit text excluded.

Recorded GI50, per entry:
* COc1cccc2c1C(=O)c1c(O)c3c(c(O)c1C2=O)C[C@@](O)(C(=O)CO)C[C@@H]3O[C@H]1C[C@H](N)[C@H](O)[C@H](C)O1 | 0.15
* COC1=C(C)C(=O)C(CCCCCCCCCCN2CCCN(CCCCCCCCCCC3=C(C)C(=O)C(OC)=C(C)C3=O)CC2)=C(C)C1=O | 0.02

May I ask what GI50 has been recorded for CC1=C(CCCCCCCCCCN2CCN(CCCCCCCCCCC3=C(C)C(=O)c4ccccc4C3=O)CC2)C(=O)c2ccccc2C1=O ? 0.26

May I ask what GI50 has been recorded for CC1=C(CCCCCCCCCCN2CCCN(C(=O)c3ccc(-c4ccccc4)cc3)CC2)C(=O)c2ccccc2C1=O ? 13.2

May I ask what GI50 has been recorded for COC1=C(C)C(=O)C(CCCCCCCCCCN2CCN(CCCCCCCCCCC3=C(C)C(=O)C(OC)=C(C)C3=O)CC2)=C(C)C1=O ? 0.15

May I ask what GI50 has been recorded for CC1=C(C)C(=O)C(CCCCCCCCCCN2CCCN(C(=O)c3ccc(-c4ccccc4)cc3)CC2)=C(C)C1=O ? 7.47

May I ask what GI50 has been recorded for CC1=C(C)C(=O)C(CCCCCCCCCCN2CCCN(CCCCCCCCCCC3=C(C)C(=O)C(C)=C(C)C3=O)CC2)=C(C)C1=O ? 0.1

May I ask what GI50 has been recorded for COC1=C(OC)C(=O)C(CCCCCCCCCCN2CCN(CCCCCCCCCCC3=C(C)C(=O)C(OC)=C(OC)C3=O)CC2)=C(C)C1=O ? 11.7

May I ask what GI50 has been recorded for COC1=C(C)C(=O)C(CCCCCCCCCCN2CCN(C(=O)c3ccc(-c4ccccc4)cc3)CC2)=C(C)C1=O ? 20

May I ask what GI50 has been recorded for COC1=C(OC)C(=O)C(CCCCCCCCCCN2CCCN(CCCCCCCCCCC3=C(C)C(=O)C(OC)=C(OC)C3=O)CC2)=C(C)C1=O ? 8.43

May I ask what GI50 has been recorded for COC1=C(C)C(=O)C(CCCCCCCCCCN2CCCN(C(=O)c3ccc(-c4ccccc4)cc3)CC2)=C(C)C1=O ? 9.68
